Entries and their T/C values follow.
- System: L1210 leukemia ip in BDF1 mice, survival T/C
- assay_procedure: NCI In Vivo Anticancer Drug Screen. Data for tumor model L1210 Leukemia (intraperitoneal) in B6D2F1 (BDF1) mice
- test_context: endpoint: mean survival time; dose: 50.0 mg/kg/injection; schedule: Q04DX003 (ip); vehicle: saline; higher = longer survival
Inconclusive results and toxic doses are left out.

# compound, T/C
records = [
    ("CCCCCCCCCCOC(=O)C[n+]1cccc(C(=O)Nc2ccc(Cl)cc2)c1", "90 % of control"),
    ("CN(C)CCCN=C1Nc2ccccc2C(=NCCCN(C)C)Nc2ccccc21", "104 % of control"),
    ("CCNC(=O)CCP(=O)(CCC(=O)NCC)CCC(=O)NCC", "101 % of control"),
]

### Prompt Field: T/C (L1210 leukemia ip in BDF1 mice, survival T/C). Entry: O=C(O)c1cc([N+](=O)[O-])cc(P(=O)(O)O)c1
### Response 94 % of control

### Prompt Field: T/C (L1210 leukemia ip in BDF1 mice, survival T/C). Entry: CCCCOc1c(Cl)c(Cl)c(O)c(Cl)c1Cl
### Response 97 % of control

### Prompt Field: T/C (L1210 leukemia ip in BDF1 mice, survival T/C). Entry: BrCc1cc(CBr)c(CBr)cc1CBr
### Response 95 % of control

### Prompt Field: T/C (L1210 leukemia ip in BDF1 mice, survival T/C). Entry: NC1=NCc2ccccc21
### Response 91 % of control

### Prompt Field: T/C (L1210 leukemia ip in BDF1 mice, survival T/C). Entry: CN(C)/N=C\c1ccc(C(=O)O)cc1
### Response 114 % of control

====

- System: L1210 leukemia ip in BDF1 mice, survival T/C
- assay_procedure: NCI In Vivo Anticancer Drug Screen. Data for tumor model L1210 Leukemia (intraperitoneal) in B6D2F1 (BDF1) mice
- test_context: endpoint: mean survival time; dose: 200.0 mg/kg/injection; schedule: Q01DX005 (ip); vehicle: saline; higher = longer survival
- Experimental: The antitumor activity of compounds was measured in mice bearing transplantable tumors. Survival or tumor size were measured and the results are expressed as the measurement made in the treated group (T) divided by the measurement made in the vehicle treated control group (C). The tumor model used in this assay is L1210 Leukemia (intraperitoneal) in B6D2F1 (BDF1) mice
Toxic doses and inconclusive results are not listed.
Entries and their T/C values follow.

# compound, T/C
rows = [
    ("BrCCOC1CCCCO1 (centres undefined)", "105 % of control"),
]

### Prompt Name the recorded T/C for Nc1nc2c(ncn2C2OC(COP(=O)(O)O)C(O)C2O)c(=O)[nH]1 (centres undefined) .
### Response 112 % of control

### Prompt Name the recorded T/C for O=c1[nH]cc(C2OC(CO)C(O)C2O)c(=O)[nH]1 (centres undefined) .
### Response 97 % of control

### Prompt Name the recorded T/C for O=c1[nH]cnc2c1nc([Se])n2C1OC(CO)C(O)C1O (centres undefined) .
### Response 107 % of control

====

- System: L1210 leukemia ip in BDF1 mice, survival T/C
- assay_procedure: NCI In Vivo Anticancer Drug Screen. Data for tumor model L1210 Leukemia (intraperitoneal) in B6D2F1 (BDF1) mice
- test_context: endpoint: mean survival time; dose: 200.0 mg/kg/injection; schedule: Q04DX003 (ip); vehicle: Klucel (hydroxypropylcellulose) (HPC); higher = longer survival
- Description: The antitumor activity of compounds was measured in mice bearing transplantable tumors. Survival or tumor size were measured and the results are expressed as the measurement made in the treated group (T) divided by the measurement made in the vehicle treated control group (C). The tumor model used in this assay is L1210 Leukemia (intraperitoneal) in B6D2F1 (BDF1) mice
Toxic doses and inconclusive results are not listed.
measure_name: T/C

# compound, T/C
data = [
    ("O=C(NC1CC2c3ccccc3C1c1ccccc12)NC1CC2c3ccccc3C1c1ccccc12 (stereo not drawn)", "89 % of control"),
    ("O=CNc1ccc2c(c1)Cc1cc(Br)ccc1-2", "97 % of control"),
    ("C=CCNC(=S)Nc1ccc(C)cc1", "101 % of control"),
]

### Prompt Name the recorded T/C for Cc1cccc([N+](=O)[O-])c1-c1ccccc1C(=O)O .
### Response 100 % of control

### Prompt Name the recorded T/C for CC(C)C(=O)NNC(=O)C(C)C .
### Response 108 % of control

Reference source for all entries: PubChem BioAssay AID248
